System: OC43
Experiment: Drug screening: OC43 nucleoprotein staining in infected A549-mRuby cells
Type: cell-based, human beta coronavirus OC43
Settings: Betacoronavirus 1, OC43, 96 h, 10 μM drug, MOI 0.3, 4 days; normalized to no-drug controls in the same plate; repeat #2; read-out: OC43_2: % staining of OC43 in screen repeat #2
Procedure: A549-mRuby cells were seeded (3,000 cells per well) in nine 384-well plates using Multidrop combi. Cells were seeded in a final volume of 30 μl with DMEM+10% BCS. The following day, 20 μl of OC43 were added (MOI 0.3) and incubated at 33° C., 5% CO2 for 1 hour. 50 nl from the Selleck FDA-approved drug library (cat #L1300, Selleck) were added (1:1,000 dilution). Two columns (32 wells) were left uninfected and two columns were treated with DMSO and virus (no drug control). […]
Counter-ions that a name gives are not always drawn.
Kindly state activity at 10 µM for each of the entries shown.
Give the number; % is assumed, so skip it.

# assay system OC43: give activity at 10 µM of CN1CCCCC1CCN1c2ccccc2Sc2ccc([S+](C)[O-])cc21 (centres unmarked) [Mesoridazine Besylate]
25

Tell me its activity at 10 µM on OC43: CNCCCN1c2ccccc2CCc2ccccc21 [Desipramine Hydrochloride]
23.7

Report value only: activity at 10 µM, OC43, CCN(CCCc1ccccc1)CCCc1ccccc1 [Alverine Citrate]
35.3

Send back OC43 activity at 10 µM of CN(C)CCCN1c2ccccc2Sc2ccccc21 [Promazine hydrochloride] only.
22.6

Specify the recorded activity at 10 µM for "COC(=O)N[C@H](C(=O)N1CCC[C@H]1c1ncc(-c2ccc3c(c2)O[C@@H](c2ccccc2)n2c-3cc3cc(-c4cnc([C@@H]5CCCN5C(=O)[C@@H](NC(=O)OC)C(C)C)[nH]4)ccc32)[nH]1)C(C)C" , system: OC43.
21.4

Lab note: OC43 assay, enter activity at 10 µM for CCC(=O)OCC(=O)[C@@]1(OC(=O)CC)[C@@H](C)C[C@H]2[C@@H]3CCC4=CC(=O)C=C[C@]4(C)[C@@]3(Cl)[C@@H](O)C[C@@]21C [Beclomethasone dipropionate] here
29

State measured activity at 10 µM of the compound CCC(=O)O[C@H]1[C@H](O[C@@H]2[C@@H](C)[C@H](O[C@H]3C[C@@](C)(OC)[C@@H](O)[C@H](C)O3)[C@@H](C)C(=O)O[C@H](CC)[C@@](C)(O)[C@H](O)[C@@H](C)C(=O)[C@H](C)C[C@@]2(C)O)O[C@H](C)C[C@@H]1N(C)C [Erythromycin estolate] with OC43.
15.9

Report value: activity at 10 µM, system: OC43, compound: "CN1CCN(CCOc2cc(OC3CCOCC3)c3c(Nc4c(Cl)ccc5c4OCO5)ncnc3c2)CC1"
24.1

State the measured activity at 10 µM (OC43) of CC(CN1c2ccccc2Sc2ccccc21)N(C)C (centres unmarked) [Promethazine HCl]
29.5

State measured activity at 10 µM of the compound "CCCCOC(=O)c1ccc(N)cc1" with OC43.
6.1

Tell me its activity at 10 µM on OC43: CCCOC(C(=O)OC1CCN(C)CC1)(c1ccccc1)c1ccccc1 [Propiverine hydrochloride]
25.2

Check OC43 data and give activity at 10 µM for CCCNCC(O)COc1ccccc1C(=O)CCc1ccccc1.O (centres unmarked) [Propafenone HCl] .
19.2

# return activity at 10 µM for "CN(C)N(C)C(=O)[C@@]1(Cc2ccccc2)CCCN(C(=O)[C@@H](Cc2c[nH]c3ccccc23)NC(=O)C(C)(C)N)C1" , test system: OC43
45.6

Find activity at 10 µM for COc1cccc(CCc2ccccc2OCC(CN(C)C)OC(=O)CCC(=O)O)c1 (centres unmarked) [Sarpogrelate hydrochloride] on OC43 and write it down.
24.9

Supply activity at 10 µM measured with OC43 for CCCCc1oc2ccccc2c1C(=O)c1cc(I)c(OCCN(CC)CC)c(I)c1 [Amiodarone HCl] .
26.9

Give reported activity at 10 µM for "CC(C)(C)c1nc(-c2cccc(NS(=O)(=O)c3c(F)cccc3F)c2F)c(-c2ccnc(N)n2)s1" (OC43)
47

// fetch activity at 10 µM; item: CC1(C)O[C@@H]2C[C@H]3[C@@H]4C[C@H](F)C5=CC(=O)C=C[C@]5(C)[C@@]4(F)[C@@H](O)C[C@]3(C)[C@]2(C(=O)CO)O1 [Fluocinolone Acetonide] ; system: OC43
52.2

Give OC43 activity at 10 µM for the following compound: CC(C)NCC(O)COc1cccc2ccccc12 (centres unmarked) [Propranolol HCl]
27.7

Consider the compound CN(C)CCC=C1c2ccccc2COc2ccccc21 [Doxepin HCl] tested on OC43; state its activity at 10 µM.
36.1

Give OC43 activity at 10 µM for the following compound: COc1cc(N)c(Cl)cc1C(=O)NC1CCN(CCCOc2ccc(F)cc2)CC1OC (centres unmarked) [Cisapride]
22.1

Provide the reported activity at 10 µM (system: OC43) for CCN(CC)CCCC(C)Nc1ccnc2cc(Cl)ccc12 (centres unmarked) [Chloroquine Phosphate]
13.1

Give activity at 10 µM for "CCCc1cc(=O)[nH]c(=S)[nH]1" tested on OC43.
55.1

Enter recorded activity at 10 µM with OC43 for CC(N)C12CC3CC(CC(C3)C1)C2 (centres unmarked) [Rimantadine Hydrochloride] here.
54.6

Please report the measured activity at 10 µM for "O=C(O[C@H]1CN2CCC1CC2)N1CCc2ccccc2[C@@H]1c1ccccc1" tested on OC43.
29.6

Fill in: activity at 10 µM on OC43, entry Cc1cc(C(C)(C)C)cc(C)c1CC1=NCCN1 [Xylometazoline HCl]
45.4

Consider the compound "CC[C@H]1OC(=O)[C@H](C)[C@@H](O[C@H]2C[C@@](C)(OC)[C@@H](O)[C@H](C)O2)[C@H](C)[C@@H](O[C@@H]2O[C@H](C)C[C@H](N(C)C)[C@H]2O)[C@](C)(O)C[C@@H](C)/C(=N\OCOCCOC)[C@H](C)[C@@H](O)[C@]1(C)O" tested on OC43; state its activity at 10 µM.
27.1

GET activity at 10 µM | system: OC43 | item: "NC(=O)C(c1ccccc1)(c1ccccc1)[C@@H]1CCN(CCc2ccc3c(c2)CCO3)C1"
34.8

Quote OC43 activity at 10 µM for entry OCc1cc(C(O)CNCCCCCCOCCCCc2ccccc2)ccc1O (centres unmarked) [Salmeterol Xinafoate] .
20.4

Report its activity at 10 µM with OC43 as the test system: Cc1nc2c([nH]1)CCN(C(=O)c1ccc(NC(=O)c3ccccc3-c3ccccc3)cc1)c1ccccc1-2.O [Conivaptan HCl]
7

====

test system: OC43; assay: Drug screening: OC43 nucleoprotein staining in infected A549-mRuby cells; type: cell-based, human beta coronavirus OC43; settings: Betacoronavirus 1, OC43, 96 h, 10 μM drug, MOI 0.3, 4 days; normalized to no-drug controls in the same plate; repeat #1; read-out: OC43_1: % staining of OC43 in screen repeat #1
Counter-ions that a name gives are not always drawn.
activity at 10 µM vs 40%: at or above is Fulfilled, below is Not fulfilled.

For this compound, is measured activity at 10 µM 40% or higher? "CCCc1cc(=O)[nH]c(=S)[nH]1"
Fulfilled

Reported activity at 10 µM at or above 40%? CN(C)CCCN1c2ccccc2CCc2ccc(Cl)cc21.O [Clomipramine HCl]
Not fulfilled

hey, is activity at 10 µM for this one >= 40%? CCN(CCCCOC(=O)c1ccc(OC)c(OC)c1)C(C)Cc1ccc(OC)cc1.O (stereo not shown) [Mebeverine Hydrochloride]
Not fulfilled

Quick check, activity at 10 µM >= 40%? CC(N)C12CC3CC(CC(C3)C1)C2 (stereo not shown) [Rimantadine Hydrochloride]
Fulfilled

Check the entry "OCCN1CCN(CCCN2c3ccccc3Sc3ccc(Cl)cc32)CC1" : does activity at 10 µM equal or exceed 40%?
Fulfilled

Would you say Cc1cc(C(C)(C)C)cc(C)c1CC1=NCCN1 [Xylometazoline HCl] shows activity at 10 µM at minimum 40%?
Fulfilled

State whether the measured activity at 10 µM reaches 40%, counting equality as reaching it, for CCC(=O)O[C@H]1[C@H](O[C@@H]2[C@@H](C)[C@H](O[C@H]3C[C@@](C)(OC)[C@@H](O)[C@H](C)O3)[C@@H](C)C(=O)O[C@H](CC)[C@@](C)(O)[C@H](O)[C@@H](C)C(=O)[C@H](C)C[C@@]2(C)O)O[C@H](C)C[C@@H]1N(C)C [Erythromycin estolate]
Not fulfilled

====

tested on: OC43; test: Drug screening: OC43 nucleoprotein staining in infected A549-mRuby cells; assay type: cell-based, human beta coronavirus OC43; details: 10 μM drug, MOI 0.3, 4 days; OC43 staining normalized to no-drug controls; mean of the two screen repeats
Observed property: OC43_mean (%)
Numbers only here, please. The scale is %.

Tell me OC43_mean reported for COc1ccc(CN2CCN(C(c3ccc(F)cc3)c3ccc(F)cc3)CC2)c(OC)c1OC.Cl.Cl [Lomerizine 2HCl]
39.9

Write down OC43_mean measured for item CC[C@H]1OC(=O)[C@H](C)[C@@H](O[C@H]2C[C@@](C)(OC)[C@@H](O)[C@H](C)O2)[C@H](C)[C@@H](O[C@@H]2O[C@H](C)C[C@H](N(C)C)[C@H]2O)[C@](C)(O)C[C@@H](C)C(=O)[C@H](C)[C@@H](O)[C@]1(C)O.N#CS [Erythromycin thiocyanate]
58.7

State its OC43_mean for this compound: C[C@@H]1[C@H](O)[C@@H](C)/C=C/C=C/CC/C=C/C=C/C=C/C=C/C(O[C@H]2O[C@H](C)[C@@H](O)[C@H](N)[C@@H]2O)CC2O[C@](O)(CC(O)C(O)CCC(O)CC(O)CC(O)CC(=O)O[C@H]1C)CC(O)C2C(=O)O (some centres unmarked)
23.3

Could you please provide reported OC43_mean for COc1cc2ncnc(Nc3ccc(F)c(Cl)c3)c2cc1OCCCN1CCOCC1 [Gefitinib (ZD1839), Gefitinib] ? Thanks!
35.5

// fetch OC43_mean given entry CN1CCN(CCCN2c3ccccc3Sc3ccc(C(F)(F)F)cc32)CC1.Cl.Cl [Trifluoperazine 2HCl]
31.6
